- assayText: Multiple-dose trial, plasma pharmacokinetics
- Format: in vivo, human
- appliedConditions: both sexes, human, plasma, po, 400 mg, 400 mg oral after breakfast, Day 1, read-out: Tmax, median (range)
endpointName: Tmax

The value of Tmax measured for the compound CC(C)=CCC[C@](C)(OC1O[C@H](CO)[C@@H](O)[C@H](O)[C@H]1O)[C@H]1CC[C@]2(C)[C@@H]1[C@H](O)C[C@@H]1[C@@]3(C)CC[C@H](O)C(C)(C)[C@@H]3CC[C@]12C (stereo partly shown) [CK] turned out to be 3 h

###

- assayText: Single-dose trial, plasma pharmacokinetics
- Format: in vivo, human
- appliedConditions: both sexes, human, plasma; single-dose trial, 100 mg oral, fasting
endpointName: MRT inf (h)
One number for each entry, in h.

The value of MRT inf measured for the compound CC(C)=CCC[C@](C)(OC1O[C@H](CO)[C@@H](O)[C@H](O)[C@H]1O)[C@H]1CC[C@]2(C)[C@@H]1[C@H](O)C[C@@H]1[C@@]3(C)CC[C@H](O)C(C)(C)[C@@H]3CC[C@]12C (stereo partly shown) [CK] turned out to be 13.7

###

- assayText: Multiple-dose trial, plasma pharmacokinetics
- Type: in vivo, human
- appliedConditions: both sexes, human, plasma, po, 200 mg, 200 mg oral after breakfast, Day 1
endpointName: MRT inf

The value of MRT inf measured for the compound CC(C)=CCC[C@](C)(OC1O[C@H](CO)[C@@H](O)[C@H](O)[C@H]1O)[C@H]1CC[C@]2(C)[C@@H]1[C@H](O)C[C@@H]1[C@@]3(C)CC[C@H](O)C(C)(C)[C@@H]3CC[C@]12C (stereo partly shown) turned out to be 14.9 h

###

- assayText: Phase 0 cross-over trial, sex differences in pharmacokinetics
- Format: in vivo, human
- appliedConditions: human, plasma, oral; phase 0 trial, Female (n = 12)
endpointName: half-life

The value of half-life measured for the compound CC(C)=CCC[C@](C)(OC1O[C@H](CO)[C@@H](O)[C@H](O)[C@H]1O)[C@H]1CC[C@]2(C)[C@@H]1[C@H](O)C[C@@H]1[C@@]3(C)CC[C@H](O)C(C)(C)[C@@H]3CC[C@]12C (stereo partly shown) [CK] turned out to be 6.7 h

###

- assayText: Multiple-dose trial, plasma pharmacokinetics
- Format: in vivo, human
- appliedConditions: both sexes, human, plasma, po, 200 mg, 200 mg qd oral after breakfast, Day 15, read-out: Tmax, median (range)
endpointName: Tmax (h)
One number for each entry, in h.

The value of Tmax measured for the compound CC(C)=CCC[C@](C)(OC1O[C@H](CO)[C@@H](O)[C@H](O)[C@H]1O)[C@H]1CC[C@]2(C)[C@@H]1[C@H](O)C[C@@H]1[C@@]3(C)CC[C@H](O)C(C)(C)[C@@H]3CC[C@]12C (stereo partly shown) [CK] turned out to be 3.5

###

- assayText: Multiple-dose trial, plasma pharmacokinetics
- Type: in vivo, human
- appliedConditions: both sexes, human, plasma, po, 200 mg, 200 mg oral after breakfast, Day 1
endpointName: AUC(0-inf) (ng·h/mL)
One number for each entry, in ng·h/mL.

The value of AUC(0-inf) measured for the molecule CC(C)=CCC[C@](C)(OC1O[C@H](CO)[C@@H](O)[C@H](O)[C@H]1O)[C@H]1CC[C@]2(C)[C@@H]1[C@H](O)C[C@@H]1[C@@]3(C)CC[C@H](O)C(C)(C)[C@@H]3CC[C@]12C (stereo partly shown) turned out to be 22700
